Data origin, for the record: patent US6677436

- TARGET OR SYSTEM: T1, human tissue factor (TF) on human bladder carcinoma cells J82 (human, UniProt P13726 33-295)
- T1 construct: whole, on cells; J82 is described as a TF-high expression cell line; also called the antigen; J82 (ATCC HTB-1)
- T1 sequence (P13726 33-295): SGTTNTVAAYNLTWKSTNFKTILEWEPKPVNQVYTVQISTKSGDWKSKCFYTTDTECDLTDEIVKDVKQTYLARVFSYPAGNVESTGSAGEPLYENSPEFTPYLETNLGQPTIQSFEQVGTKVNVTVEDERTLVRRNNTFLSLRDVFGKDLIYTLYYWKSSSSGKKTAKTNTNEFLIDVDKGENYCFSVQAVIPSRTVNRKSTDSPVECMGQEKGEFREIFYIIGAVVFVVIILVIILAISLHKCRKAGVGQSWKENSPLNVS
- TEST PROTOCOL: cell ELISA on fixed J82 cells
PROPERTY MEASURED: binding result

H chain humanized version a/L chain chimeric antibody (antibody, V domains shown, Expressed from vector N5KG4P (IgG4-type, human Cgamma4 and Ckappa); also called a-ch; hHva-chLv/N5KG4P) VH: QVQLLESGAVLARPGTSVKISCKASGFNIKDYYMHWVKQRPGQGLEWIGGNDPANGHSMYDPKFQGRAKLTAATSASIAYLEFSSLTNEDSAVYYCARDSGYAMDYWGQGTLVTVSS VL: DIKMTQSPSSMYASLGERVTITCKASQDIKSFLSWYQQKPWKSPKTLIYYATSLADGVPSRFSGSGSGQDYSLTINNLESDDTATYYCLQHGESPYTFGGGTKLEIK
binds
H chain humanized version b/L chain humanized version a antibody (antibody, V domains shown, Expressed from vector N5KG4P (IgG4-type, human Cgamma4 and Ckappa); also called b-a; hHvb-hLva/N5KG4P) VH: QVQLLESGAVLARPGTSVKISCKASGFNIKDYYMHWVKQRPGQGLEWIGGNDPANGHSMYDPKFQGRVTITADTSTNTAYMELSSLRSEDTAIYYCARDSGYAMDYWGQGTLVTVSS VL: DIQMTQSPSSLSASVGDRVTITCKASQDIKSFLSWYQQKPGKAPKLLIYYATSLADGVPSRFSGSGSGTDFTLTISSLQPEDFATYYCLQHGESPYTFGGGTKVEIK
binds
H chain chimeric/L chain humanized version a antibody (antibody, V domains shown, Expressed from vector N5KG4P (IgG4-type, human Cgamma4 and Ckappa); also called chHv-hLva/N5KG4P) VH: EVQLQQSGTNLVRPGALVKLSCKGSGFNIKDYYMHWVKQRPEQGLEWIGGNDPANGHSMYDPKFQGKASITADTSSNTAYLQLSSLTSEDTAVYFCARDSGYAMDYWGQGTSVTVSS VL: DIQMTQSPSSLSASVGDRVTITCKASQDIKSFLSWYQQKPGKAPKLLIYYATSLADGVPSRFSGSGSGTDFTLTISSLQPEDFATYYCLQHGESPYTFGGGTKVEIK
binds
